Known IC50 of a selection of compounds
tgt: SHP2 (Homo sapiens (Human), UniProt Q06124)
Sequence (Q06124 whole entry): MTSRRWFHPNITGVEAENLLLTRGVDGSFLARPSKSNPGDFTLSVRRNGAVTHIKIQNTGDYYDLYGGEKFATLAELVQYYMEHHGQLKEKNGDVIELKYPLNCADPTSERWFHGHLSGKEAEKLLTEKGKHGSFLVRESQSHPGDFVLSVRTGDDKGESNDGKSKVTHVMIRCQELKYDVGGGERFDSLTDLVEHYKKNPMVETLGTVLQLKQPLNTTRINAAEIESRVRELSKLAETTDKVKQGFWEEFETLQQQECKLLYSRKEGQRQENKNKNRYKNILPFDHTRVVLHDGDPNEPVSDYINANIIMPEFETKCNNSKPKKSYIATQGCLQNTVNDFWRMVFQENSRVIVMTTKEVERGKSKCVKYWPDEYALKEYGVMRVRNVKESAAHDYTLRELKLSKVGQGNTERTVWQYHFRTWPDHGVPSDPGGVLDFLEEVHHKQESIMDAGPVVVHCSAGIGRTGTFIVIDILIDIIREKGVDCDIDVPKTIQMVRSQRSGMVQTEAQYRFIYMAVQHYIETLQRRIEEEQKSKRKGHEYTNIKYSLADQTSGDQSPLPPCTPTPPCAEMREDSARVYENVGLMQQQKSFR
testSummary: SHP2 allosteric inhibition assay (DiFMUP prompt fluorescence)
Type: biochemical
particulars: 0.25 nM SHP2 activated with 0.5 μM peptide IRS1_pY1172(dPEG8)pY1222; substrate DiFMUP
parameter: IC50

{"compound": "N[C@@H]1c2ccccc2CC12CCN(c1ncc(N3CCCCc4ccccc43)nc1CO)CC2", "valueMeasured": "≤ 50 nM"}
{"compound": "Nc1nccc(Sc2cnc(C34C[C@@H]5C[C@@]6(Cc7ccccc7[C@H]6N)C[C@H](C3)N54)cn2)c1Cl (stereo partly drawn)", "valueMeasured": "> 10000 nM"}
{"compound": "Cc1nc2c(N3CCCCC3)n[nH]c2nc1N1CCC2(CC1)Oc1ccc(F)cc1[C@H]2N", "valueMeasured": "1000 to 10000 nM"}
{"compound": "N[C@@H]1c2ccccc2CC12CCN(c1cnc(SC3CCOCC3)cn1)CC2", "valueMeasured": "1000 to 10000 nM"}
{"compound": "Cn1c(N2CCC3(CC2)Cc2ccccc2[C@H]3N)ccc(N2CCCc3ccccc32)c1=O", "valueMeasured": "≤ 50 nM"}
{"compound": "Cc1nc2c(N3CCOCC3)n[nH]c2nc1N1CCC2(CC1)Cc1ccccc1[C@H]2N", "valueMeasured": "≤ 50 nM"}

* * *

tgt: SHP2 (Homo sapiens (Human))
testSummary: SHP2 allosteric inhibition assay (DiFMUP prompt fluorescence)
Assay type: biochemical
particulars: 0.25 nM SHP2 activated with 0.5 μM peptide IRS1_pY1172(dPEG8)pY1222; substrate DiFMUP
pIC50: −log10 of the molar value.
parameter: pIC50

{"compound": "N[C@@H]1c2ccccc2CC12CCN(c1cnc(Sc3cccc(Cl)c3Cl)cn1)CC2 [Example 147]", "valueMeasured": "≥ 7.30"}
{"compound": "N[C@@H]1c2ccccc2CC12CCN(c1nc3[nH]nc(N4CCCc5ncccc54)c3nc1C(F)F)CC2 [Example 140]", "valueMeasured": "≥ 7.30"}
{"compound": "N[C@@H]1c2ccccc2CC12CCN(c1ncc(N3CCCc4ccccc43)c(=O)[nH]1)CC2 [Example 210]", "valueMeasured": "< 5.00"}
{"compound": "N[C@@H]1c2ccccc2OC12CCN(c1cnc(SCC3CC3)cn1)CC2 [Example 273]", "valueMeasured": "≥ 7.30"}
{"compound": "N[C@@H]1c2ccccc2CC12CCN(c1cnc3c(-c4ccnc(Cl)c4F)n[nH]c3n1)CC2 [Example 67]", "valueMeasured": "≥ 7.30"}
{"compound": "N[C@@H]1c2ccccc2CC12CCN(c1cnc(N3CCCC3c3ccccc3)cn1)CC2 (stereo in doubt) [Example 164]", "valueMeasured": "≥ 7.30"}
{"compound": "Nc1cc(Sc2cnc(N3CCC4(CC3)Cc3ccccc3[C@H]4N)cn2)c(Cl)c(Cl)n1 [Example 129]", "valueMeasured": "≥ 7.30"}
{"compound": "N[C@@H]1c2cc(F)cc(F)c2CC12CCN(c1cnc3c(N4CCCc5ncccc54)n[nH]c3n1)CC2 [Example 109]", "valueMeasured": "≥ 7.30"}

* * *

tgt: SHP2 (Homo sapiens (Human), UniProt Q06124)
testSummary: SHP2 allosteric inhibition assay (DiFMUP prompt fluorescence)
Assay type: biochemical
particulars: 0.25 nM SHP2 activated with 0.5 μM peptide IRS1_pY1172(dPEG8)pY1222; substrate DiFMUP
Form field: IC50 (one value per entry).

{"compound": "Cc1nc(N2CCC3(CC2)Cc2ccccc2[C@H]3N)c(CO)nc1-c1cccc(Cl)c1Cl", "IC50": "≤ 50 nM"}
{"compound": "N[C@@H]1c2ccccc2CC12CCN(c1cnc(Sc3cc[nH]c(=O)c3Cl)cn1)CC2", "IC50": "≤ 50 nM"}
{"compound": "NC1c2ccccc2CC12CCN(c1nc3[nH]nc(N4CCCc5ncccc54)c3nc1CO)CC2 (centres unmarked)", "IC50": "≤ 50 nM"}
{"compound": "Nc1nccc(Sc2ccc(N3CCC4(CC3)Oc3ccccc3[C@H]4N)cn2)c1Cl", "IC50": "50 to 1000 nM"}
{"compound": "Cc1cnc(CO)c(N2CCC3(CC2)Cc2ccccc2[C@H]3N)n1 (single isomer, unassigned)", "IC50": "≤ 50 nM"}
{"compound": "Cc1nc2c(N3CCCc4c3ccn(C)c4=O)n[nH]c2nc1N1CCC2(CC1)Cc1cc(F)ccc1[C@H]2N", "IC50": "1000 to 10000 nM"}
{"compound": "N#Cc1nc(Sc2ccnc(Cl)c2Cl)cnc1N1CCC2(CC1)Cc1ccccc1[C@H]2N", "IC50": "≤ 50 nM"}
{"compound": "COc1nc(N2CCC3(CC2)Cc2ccccc2[C@H]3N)ncc1Sc1cccc(Cl)c1Cl", "IC50": "50 to 1000 nM"}

* * *

tgt: SHP2 (Homo sapiens (Human), UniProt Q06124)
testSummary: SHP2 allosteric inhibition assay (DiFMUP prompt fluorescence)
Assay type: biochemical
particulars: 0.25 nM SHP2 activated with 0.5 μM peptide IRS1_pY1172(dPEG8)pY1222; substrate DiFMUP

{"molecule": "N[C@@H]1c2ccccc2CC12CCN(c1cnc3c(N4CCCc5nc(-c6ccn[nH]6)ccc54)n[nH]c3n1)CC2", "IC50": "≤ 50 nM"}
{"molecule": "Cn1ccc2c(c1=O)CCCN2c1n[nH]c2nc(N3CCC4(CC3)Oc3c(F)cccc3[C@H]4N)cnc12", "IC50": "≤ 50 nM"}
{"molecule": "Nc1nccc(Oc2n[nH]c3nc(N4CCC5(CC4)Cc4ccccc4[C@@H]5N)cnc23)c1Cl (single isomer, unassigned)", "IC50": "≤ 50 nM"}
{"molecule": "N[C@@H]1c2ccccc2CC12CCN(c1cnc3c(ccn3-c3cccc4ncccc34)n1)CC2", "IC50": "1000 to 10000 nM"}
{"molecule": "N[C@@H]1c2ccccc2CC12CCN(c1cnc3c(Oc4ccnc(Cl)c4Cl)n[nH]c3n1)CC2", "IC50": "≤ 50 nM"}
{"molecule": "N[C@@H]1c2ccccc2CC12CCN(c1cnc(C(=O)N3CCCc4ncccc43)cn1)CC2", "IC50": "≤ 50 nM"}
{"molecule": "CN(C)C(=O)c1ccc2c(c1)[C@@H](N)C1(CCN(c3cnc4c(N5CCCc6ncccc65)n[nH]c4n3)CC1)C2", "IC50": "≤ 50 nM"}
{"molecule": "Nc1cnc(CO)c(N2CCC3(CC2)Cc2ccccc2[C@H]3N)n1", "IC50": "≤ 50 nM"}
{"molecule": "N#Cc1cccc2c1CC1(CCN(c3cnc4c(N5CCCc6ncccc65)n[nH]c4n3)CC1)[C@@H]2N", "IC50": "≤ 50 nM"}
{"molecule": "Nc1nccc(Sc2cnc(N3CCC4(CC3)Cc3ccccc3[C@H]4N)cn2)c1Cl [Example 81]", "IC50": "≤ 50 nM"}
{"molecule": "Nc1nccc(Sc2cnc(N3CCC4(CC3)Cc3ccccc3[C@@H]4N)cn2)c1Cl", "IC50": "≤ 50 nM"}
{"molecule": "NC1c2ccccc2C[C@]12CC[C@H](c1ccc(SCC3CC3)nc1)CC2 (single isomer, unassigned)", "IC50": "50 to 1000 nM"}
{"molecule": "N[C@@H]1c2cccc(F)c2OC12CCN(c1cnc(Sc3ccnc(Cl)c3Cl)cn1)CC2", "IC50": "≤ 50 nM"}
{"molecule": "COc1cccc(-n2nccc2C(=O)N2CCC3(CC2)Cc2ccccc2[C@H]3N)c1", "IC50": "> 10000 nM"}
{"molecule": "Nc1nccc(Oc2cnc(N3CCC4(CC3)Oc3ccccc3[C@H]4N)cn2)c1Cl", "IC50": "≤ 50 nM"}
{"molecule": "N[C@@H]1c2ccccc2OC12CCN(c1nc3[nH]ncc3nc1CO)CC2", "IC50": "≤ 50 nM"}
{"molecule": "Cc1cc(-c2cccnc2)c(C)c(N2CCC3(CC2)Cc2ccccc2[C@H]3N)n1", "IC50": "≤ 50 nM"}
{"molecule": "Nc1nccc(Nc2n[nH]c3nc(N4CCC5(CC4)Cc4ccccc4[C@H]5N)cnc23)c1Cl", "IC50": "≤ 50 nM"}
{"molecule": "N[C@H]1c2cccc(F)c2CC12CCN(c1cnc3c(N4CCCc5ncccc54)n[nH]c3n1)CC2", "IC50": "1000 to 10000 nM"}
{"molecule": "CCSc1cnc(N2CCC3(CC2)Cc2ccccc2[C@H]3N)cn1", "IC50": "50 to 1000 nM"}
{"molecule": "CC(=O)N1CCN(c2n[nH]c3nc(N4CCC5(CC4)Cc4ccccc4[C@H]5N)c(CO)nc23)c2ccccc21", "IC50": "≤ 50 nM"}
{"molecule": "N[C@@H]1c2ccccc2O[C@]12C[C@H]1CC[C@@H](C2)N1c1cnc(SCC2CC2)cn1", "IC50": "1000 to 10000 nM"}
{"molecule": "N[C@@H]1c2ccccc2CC12CCN(c1cnc(C(=O)c3ccccc3)cn1)CC2", "IC50": "≤ 50 nM"}
{"molecule": "Nc1nccc(Sc2cnc(N3CCC4(CC3)Cc3c(F)cccc3[C@H]4N)cn2)c1Cl", "IC50": "≤ 50 nM"}
{"molecule": "N[C@@H]1c2ccccc2CC12CCN(c1ncc(Sc3cccc(Cl)c3Cl)c(=O)[nH]1)CC2", "IC50": "≤ 50 nM"}
{"molecule": "Nc1nccc(Sc2cnc(N3CCC4(CC3)Cc3ccccc3[C@H]4N)cn2)c1Cl [Example 63]", "IC50": "50 to 1000 nM"}
{"molecule": "N[C@@H]1c2ccccc2CC12CCN(c1cnc3c(Sc4ccnc(Cl)c4Cl)n[nH]c3n1)CC2", "IC50": "1000 to 10000 nM"}
{"molecule": "N[C@@H]1c2ccccc2C[C@]12CC[C@H](c1ccc(Sc3ccnc(Cl)c3Cl)nc1)CC2", "IC50": "≤ 50 nM"}
{"molecule": "Cc1cc(-c2nccs2)cc(N2CCC3(CC2)Cc2ccccc2[C@H]3N)n1", "IC50": "1000 to 10000 nM"}
{"molecule": "N[C@H]1c2ccccc2CC12CCN(c1cnc3c(-c4cc5cc[nH]c5cc4F)n[nH]c3n1)CC2", "IC50": "≤ 50 nM"}
{"molecule": "N[C@@H]1c2ccccc2CC12CCN(c1ncc(SCC3CC3)nc1CO)CC2", "IC50": "≤ 50 nM"}
